- assayed_system: UniProt P20309
- Sequence (P20309 whole entry, looked up): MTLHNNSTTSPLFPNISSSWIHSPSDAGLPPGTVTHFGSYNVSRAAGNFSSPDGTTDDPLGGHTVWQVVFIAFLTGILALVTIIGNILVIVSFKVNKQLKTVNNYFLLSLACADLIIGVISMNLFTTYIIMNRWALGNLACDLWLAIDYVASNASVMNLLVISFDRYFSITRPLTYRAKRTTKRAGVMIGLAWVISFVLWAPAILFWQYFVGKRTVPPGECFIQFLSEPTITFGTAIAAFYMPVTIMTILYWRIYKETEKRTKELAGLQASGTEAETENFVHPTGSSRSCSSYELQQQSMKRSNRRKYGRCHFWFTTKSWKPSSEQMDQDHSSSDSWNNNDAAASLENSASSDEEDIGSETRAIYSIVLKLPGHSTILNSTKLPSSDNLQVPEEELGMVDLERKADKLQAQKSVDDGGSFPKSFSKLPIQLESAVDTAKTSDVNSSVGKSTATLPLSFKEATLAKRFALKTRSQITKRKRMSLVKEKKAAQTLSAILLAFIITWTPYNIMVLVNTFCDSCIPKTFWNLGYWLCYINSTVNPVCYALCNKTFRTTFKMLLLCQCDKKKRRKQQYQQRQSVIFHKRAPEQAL
- measurement_description: Binding affinity at the unliganded human muscarinic acetylcholine receptor M3 was estimated as log affinity (log1/M)
readout_name: Affinity
Please reply with the value in numeric form only.

Briefly, Affinity measured for O=C1C[C@@H]2OCC=C3C[N+]4(Cc5ccc([N+](=O)[O-])cc5)CC[C@]56c7ccccc7N1[C@H]5[C@H]2[C@H]3C[C@@H]64 (some centres undefined) : 4.6

Briefly, Affinity measured for C=CC[N+]12CC[C@@]34c5ccccc5N5C(=O)C[C@@H]6OCC=C(C1)[C@H](C[C@@H]32)[C@@H]6[C@H]54 (some centres undefined) : 4.6

* * *

- assayed_system: Muscarinic acetylcholine receptor M2 (Homo sapiens)
- Sequence (whole entry): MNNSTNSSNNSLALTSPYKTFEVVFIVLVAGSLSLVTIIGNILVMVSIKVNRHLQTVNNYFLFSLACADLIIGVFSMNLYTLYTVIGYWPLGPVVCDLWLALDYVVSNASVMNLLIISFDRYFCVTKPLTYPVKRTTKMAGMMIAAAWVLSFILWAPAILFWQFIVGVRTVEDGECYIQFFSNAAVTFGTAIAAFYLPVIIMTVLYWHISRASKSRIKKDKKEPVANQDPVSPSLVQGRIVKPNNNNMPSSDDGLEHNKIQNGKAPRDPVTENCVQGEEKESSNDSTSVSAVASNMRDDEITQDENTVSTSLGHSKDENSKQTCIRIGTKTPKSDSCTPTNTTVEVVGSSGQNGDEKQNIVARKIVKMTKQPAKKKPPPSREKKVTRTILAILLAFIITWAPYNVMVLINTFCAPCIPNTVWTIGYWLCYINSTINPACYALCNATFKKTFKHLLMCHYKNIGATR
- measurement_description: Binding affinity at the NMS liganded human muscarinic acetylcholine receptor M2 was estimated as log affinity (log1/M)
Affinity strictly under 5 means MET; at 5 or over means NOT MET.

Answer whether the compound COc1cc2c(cc1OC)[C@@]13CC[N+]4(N)CC5=CCO[C@H]6CC(=O)N2[C@H]1[C@H]6[C@H]5C[C@@H]34 (some centres not stated) has Affinity strictly less than 5
MET

Answer whether the compound C=CC[N+]12CC[C@@]34c5ccccc5N5C(=O)C[C@@H]6OCC=C(C1)[C@H](C[C@@H]32)[C@@H]6[C@H]54 (some centres not stated) has Affinity strictly less than 5
NOT MET

Answer whether the compound C#CC[N+]12CC[C@@]34c5ccccc5N5C(=O)C[C@@H]6OCC=C(C1)[C@H](C[C@@H]32)[C@@H]6[C@H]54 (some centres not stated) has Affinity strictly less than 5
NOT MET

Answer whether the compound O=C1C[C@@H]2OCC=C3C[N+]4(Cc5ccccc5)CC[C@]56c7ccccc7N1[C@H]5[C@H]2[C@H]3C[C@@H]64 (some centres not stated) has Affinity strictly less than 5
NOT MET

Answer whether the compound O=C1C[C@@H]2OCC=C3CN4CC[C@]56c7ccccc7N1[C@H]5[C@H]2[C@H]3C[C@H]46 has Affinity strictly less than 5
NOT MET

Answer whether the compound CC[N+]12CC[C@@]34c5ccccc5N5C(=O)C[C@@H]6OCC=C(C1)[C@H](C[C@@H]32)[C@@H]6[C@H]54 (some centres not stated) has Affinity strictly less than 5
NOT MET

Answer whether the compound COc1cc2c(cc1OC)[C@@]13CCN4CC5=CCO[C@H]6CC(=O)N2[C@H]1[C@H]6[C@H]5C[C@H]43 has Affinity strictly less than 5
MET
